All values here come from the supplement of paper PMC7932537.

# System Tested: MMP-2 catalytic domain (UniProt P08253)
# Sequence (P08253 whole entry, looked up, the tested form may be a part): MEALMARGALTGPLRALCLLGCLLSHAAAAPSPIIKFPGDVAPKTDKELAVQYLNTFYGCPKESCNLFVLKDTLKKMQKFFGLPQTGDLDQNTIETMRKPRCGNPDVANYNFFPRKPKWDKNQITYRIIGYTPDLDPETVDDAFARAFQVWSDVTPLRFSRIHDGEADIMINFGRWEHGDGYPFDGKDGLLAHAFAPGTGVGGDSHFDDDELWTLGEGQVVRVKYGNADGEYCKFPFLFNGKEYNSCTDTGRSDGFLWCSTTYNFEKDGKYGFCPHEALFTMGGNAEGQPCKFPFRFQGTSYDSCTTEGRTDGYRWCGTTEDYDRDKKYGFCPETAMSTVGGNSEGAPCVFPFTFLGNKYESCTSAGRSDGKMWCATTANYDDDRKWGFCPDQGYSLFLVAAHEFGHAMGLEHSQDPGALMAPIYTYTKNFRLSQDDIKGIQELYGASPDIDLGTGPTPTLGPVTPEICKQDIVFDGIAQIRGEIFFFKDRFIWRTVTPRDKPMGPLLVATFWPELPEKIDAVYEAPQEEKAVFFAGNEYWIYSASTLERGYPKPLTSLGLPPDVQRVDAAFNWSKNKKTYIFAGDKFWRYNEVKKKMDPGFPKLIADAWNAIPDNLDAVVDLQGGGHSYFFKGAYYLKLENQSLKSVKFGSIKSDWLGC
# Assay Protocol: kcat/KM (M-1 s-1); higher = more efficient cleavage by the protease
Each record here notes measured kcat/KM.
Attribute Measured: kcat/KM

Substance: KSPVGV
Recorded Result: 15000

Substance: PGPIGW
Recorded Result: 27000

Substance: RMMREL
Recorded Result: 25300

Substance: IPLASL
Recorded Result: 45700

Substance: PAGVKA
Recorded Result: 51800

Substance: EVPQAL
Recorded Result: 47700

Substance: ARHYKS
Recorded Result: 15800

Substance: PSNMEG
Recorded Result: 92000

Substance: PLQLQT
Recorded Result: 10000

Substance: PQPSEL
Recorded Result: 51200

Substance: PLRQIG
Recorded Result: 12300

Substance: LSPFGQ
Recorded Result: 10000

Substance: GPRYLM
Recorded Result: 30900

Substance: QQPSRL
Recorded Result: 259000

Substance: PAPNSL
Recorded Result: 87800

Substance: IRPKHF
Recorded Result: 43200

Substance: TPAAMT
Recorded Result: 107000

Substance: PQPLDL
Recorded Result: 32300

Substance: GPALSY
Recorded Result: 12600

Substance: PKGYQG
Recorded Result: 48000

Substance: VEPLKF
Recorded Result: 18000

Substance: PYEWHS
Recorded Result: 5850

Substance: PSPADI
Recorded Result: 70600

Substance: PQPEGL
Recorded Result: 53800

Substance: QQPQAL
Recorded Result: 46800

Substance: PYGIKG
Recorded Result: 54400

Substance: MGPLGQ
Recorded Result: 64800

Substance: PTPKAL
Recorded Result: 35900

Substance: SPPAAI
Recorded Result: 79700

Substance: KSPLRQ
Recorded Result: 6570

Substance: LPKPLR
Recorded Result: 42400

Substance: PHNILS
Recorded Result: 23800

Substance: PQGLAG
Recorded Result: 37400

Substance: GPKGFR
Recorded Result: 88300

Substance: PMDIHA
Recorded Result: 15300

Substance: GPARPY
Recorded Result: 39700

Substance: TAPSSQ
Recorded Result: 142000

Substance: PRPQAA
Recorded Result: 13400

Substance: GKPVSM
Recorded Result: 69800

Substance: WPSPFR
Recorded Result: 36800

Substance: PHGYKG
Recorded Result: 34600

Substance: PHGLAT
Recorded Result: 16300

Substance: NPQNIR
Recorded Result: 35600

Substance: GPEGMK
Recorded Result: 9100

Substance: GQPMNL
Recorded Result: 51400

Substance: QGPAAI
Recorded Result: 92100

Substance: PIQLQS
Recorded Result: 10300

Substance: HPVSMV
Recorded Result: 32100

Substance: GPAGIR
Recorded Result: 181000

Substance: PGPIGI
Recorded Result: 22800

Substance: NVARPM
Recorded Result: 23900

Substance: VHPSAV
Recorded Result: 34300

Substance: PRGFSH
Recorded Result: 1390

Substance: ETPRPW
Recorded Result: 19700

Substance: PVGMKG
Recorded Result: 60400

Substance: EPVSLA
Recorded Result: 7230

Substance: PEGLQG
Recorded Result: 33700

Substance: PRPFHH
Recorded Result: 9900

Substance: TQPKAM
Recorded Result: 54700

Substance: RRPRPL
Recorded Result: 25000

Substance: GEPFEL
Recorded Result: 8910

Substance: DRKPKA
Recorded Result: 0

Substance: AHNLSS
Recorded Result: 16400

Substance: SAAQPL
Recorded Result: 12900

Substance: PVAIPM
Recorded Result: 7030

Substance: GEPRGQ
Recorded Result: 48000

Substance: PKALPY
Recorded Result: 31000

Substance: PHPRLL
Recorded Result: 30700

Substance: PGPAGQ
Recorded Result: 154000

Substance: DSPQNL
Recorded Result: 56400

Substance: PEPAAL
Recorded Result: 104000

Substance: DGPVSF
Recorded Result: 22200

Substance: QPPLPL
Recorded Result: 15400

Substance: VPQEWR
Recorded Result: 27700

Substance: KSPQAM
Recorded Result: 62600

Substance: PAQLHV
Recorded Result: 26000

Substance: TTPSPI
Recorded Result: 115000

Substance: KPVNMT
Recorded Result: 37600

Substance: QPLEIR
Recorded Result: 28400

Substance: INPQGL
Recorded Result: 114000

Substance: SIPLPL
Recorded Result: 15100

Substance: VSALSS
Recorded Result: 24900

Substance: SPMAFS
Recorded Result: 18400

Substance: KSPQSY
Recorded Result: 46500

Substance: APALWI
Recorded Result: 34400

Substance: EPKPLL
Recorded Result: 17700

Substance: GPHGYK
Recorded Result: 16400

Substance: MRPVGH
Recorded Result: 39300

Substance: NPMPIR
Recorded Result: 22600

Substance: GPRGLK
Recorded Result: 125000

Substance: RPEDLR
Recorded Result: 21300

Substance: NRPNNL
Recorded Result: 88100

Substance: PMALMD
Recorded Result: 15300

Substance: KSPSRL
Recorded Result: 182000

Substance: EGPAGL
Recorded Result: 133000

Substance: MSPANI
Recorded Result: 188000

Substance: PVNMTD
Recorded Result: 15700
